Hi there, I'd appreciate the recorded WBC for every entry that follows.
species: Rattus norvegicus; test: Open TG-GATES - Regimen: Daily Repeat; assay type: toxicity, organism-based, Sprague-Dawley; set-up: regimen Daily Repeat, gender Male, age 6 weeks; settings: in vivo, po, 0 mg/kg, […], tissue Blood, route gavage, dose level Control, time 14 day
Write the numeric value and follow it with the unit.

In the examples that follow, each entry is paired with its recorded WBC.
compound | result
O=C1NC(=O)C(c2ccccc2)(c2ccccc2)N1 | 135.4 x10_2/uL
Cc1cccc(Nc2cc(Cl)nc(SCC(=O)O)n2)c1C | 101.8 x10_2/uL
O=C1CN(/N=C/c2ccc(-c3ccc([N+](=O)[O-])cc3)o2)C(O)=N1 | 110.6 x10_2/uL
CS(=O)(=O)Nc1ccc([N+](=O)[O-])cc1Oc1ccccc1 [NIMESULIDE] | 118 x10_2/uL
O=P1(N(CCCl)CCCl)NCCCO1 (stereo not given) [CYCLOPHOSPHAMIDE ANHYDROUS] | 131.2 x10_2/uL

Record WBC for all entries; do not skip any.
1. Cn1cnc([N+](=O)[O-])c1Sc1ncnc2nc[nH]c12
2. C=CCO

A.
["113.3 x10_2/uL", "144 x10_2/uL"]

// for each compound below, give its WBC
1. COc1ccc(Cl)cc1C(=O)NCCc1ccc(S(=O)(=O)NC(=O)NC2CCCCC2)cc1 [GLYBURIDE]
2. COc1ccc(O)c(C(C)(C)C)c1.COc1ccc(O)cc1C(C)(C)C [BUTYLATED HYDROXYANISOLE]
3. Cn1c(=O)c2c(ncn2C)n(C)c1=O

A.
["124.8 x10_2/uL", "111.3 x10_2/uL", "117.6 x10_2/uL"]

====

organism: Rattus norvegicus; assay: Open TG-GATES - Regimen: Daily Repeat; type: toxicity, organism-based, Sprague-Dawley; set-up: regimen Daily Repeat, gender Male, age 6 weeks; settings: in vivo, po, 0 mg/kg, […], tissue Blood, route gavage, dose level Control, time 14 day
measured_metric: RBC (x10_4/ul)
One number for each entry, in x10_4/ul.

Known results for compounds:
compound | RBC [x10_4/ul]
Cc1cnc(NC(=O)C2=C(O)c3ccccc3S(=O)(=O)N2C)s1 [MELOXICAM] | 734.2
C=CCO [ALLYL ALCOHOL] | 701.8
Cc1cccc(Nc2cc(Cl)nc(SCC(=O)O)n2)c1C [PIRINIXIC ACID] | 716.8

For each entry beneath this line, provide reported RBC.
1. CS(=O)(=O)Nc1ccc([N+](=O)[O-])cc1Oc1ccccc1 [NIMESULIDE]
2. O=P1(N(CCCl)CCCl)NCCCO1 (stereo unspecified) [CYCLOPHOSPHAMIDE ANHYDROUS]
3. Cn1cnc([N+](=O)[O-])c1Sc1ncnc2nc[nH]c12 [AZATHIOPRINE]
4. O=C1NC(=O)C(c2ccccc2)(c2ccccc2)N1 [PHENYTOIN]
5. O=C1CN(/N=C/c2ccc(-c3ccc([N+](=O)[O-])cc3)o2)C(O)=N1 [DANTROLENE]
6. Cn1c(=O)c2c(ncn2C)n(C)c1=O [CAFFEINE]
7. COc1ccc(O)c(C(C)(C)C)c1.COc1ccc(O)cc1C(C)(C)C [BUTYLATED HYDROXYANISOLE]

A.
689.8
676.6
694.4
690
728.6
688
700.6

Q. Entry under review: COc1ccc(Cl)cc1C(=O)NCCc1ccc(S(=O)(=O)NC(=O)NC2CCCCC2)cc1 [GLYBURIDE] . Reported RBC?
A. 701

====

organism: Rattus norvegicus; assay: Open TG-GATES - Regimen: Single; type: toxicity, organism-based, Sprague-Dawley; design: regimen Single, gender Male, age 6 weeks; details: in vivo, po, 0 mg/kg, 6 h, tissue Plasma, route gavage, dose level Control
measured_metric: PL (mg/dL)
Answers are plain numbers, in mg/dL.

Consider the worked cases shown below.
compound | readout_units | PL
Cc1cccc(Nc2cc(Cl)nc(SCC(=O)O)n2)c1C [PIRINIXIC ACID] | mg/dL | 145
COc1ccc(Cl)cc1C(=O)NCCc1ccc(S(=O)(=O)NC(=O)NC2CCCCC2)cc1 [GLYBURIDE] | mg/dL | 148.6
CS(=O)(=O)Nc1ccc([N+](=O)[O-])cc1Oc1ccccc1 [NIMESULIDE] | mg/dL | 139.6
O=C1NC(=O)C(c2ccccc2)(c2ccccc2)N1 [PHENYTOIN] | mg/dL | 139.6
C=CCO [ALLYL ALCOHOL] | mg/dL | 146

Hi team, please reply with PL for each item in this list.
1. CNCCC(Oc1ccc(C(F)(F)F)cc1)c1ccccc1.Cl (stereo not given) [FLUOXETINE HYDROCHLORIDE]
2. O=C1CN(/N=C/c2ccc(-c3ccc([N+](=O)[O-])cc3)o2)C(O)=N1 [DANTROLENE]

A.
131.2
135.2

====

Assign A/G to each entry below.
species: Rattus norvegicus; assay: Open TG-GATES - Regimen: Daily Repeat; type: toxicity, organism-based, Sprague-Dawley; set-up: regimen Daily Repeat, gender Male, age 6 weeks; details: in vivo, po, 0 mg/kg, […], tissue Plasma, route gavage, dose level Control, time 14 day
Numbers only.

Quick request: A/G for each listed item, please.
1. C=CCO
2. COc1ccc(O)c(C(C)(C)C)c1.COc1ccc(O)cc1C(C)(C)C [BUTYLATED HYDROXYANISOLE]
3. COc1ccc(Cl)cc1C(=O)NCCc1ccc(S(=O)(=O)NC(=O)NC2CCCCC2)cc1 [GLYBURIDE]
4. Cn1cnc([N+](=O)[O-])c1Sc1ncnc2nc[nH]c12

A.
[1.4, 0.8, 1.5, 1.1]

====

organism: Rattus norvegicus; experiment: Open TG-GATES - Regimen: Daily Repeat; type: toxicity, organism-based, Sprague-Dawley; parameters: regimen Daily Repeat, gender Male, age 6 weeks; details: in vivo, po, 0 mg/kg, […], tissue Blood, route gavage, dose level Control, time 14 day
measured_metric: MCH (pg)
Numbers only, in pg.

Consider the reported MCH for these compounds:
compound | measured_number
Cn1cnc([N+](=O)[O-])c1Sc1ncnc2nc[nH]c12 | 21.4
O=C1CN(/N=C/c2ccc(-c3ccc([N+](=O)[O-])cc3)o2)C(O)=N1 | 20.3
Cc1cnc(NC(=O)C2=C(O)c3ccccc3S(=O)(=O)N2C)s1 | 20.1
COc1ccc(Cl)cc1C(=O)NCCc1ccc(S(=O)(=O)NC(=O)NC2CCCCC2)cc1 [GLYBURIDE] | 20.1
Cc1cccc(Nc2cc(Cl)nc(SCC(=O)O)n2)c1C | 20.2
C=CCO | 20.2
O=P1(N(CCCl)CCCl)NCCCO1 (stereo not drawn) [CYCLOPHOSPHAMIDE ANHYDROUS] | 20.2

Q. Requested read-out: MCH. Entry: COc1ccc(O)c(C(C)(C)C)c1.COc1ccc(O)cc1C(C)(C)C [BUTYLATED HYDROXYANISOLE]
A. 19.9

====

species on record: Rattus norvegicus; assay: Open TG-GATES - Regimen: Daily Repeat; assay type: toxicity, organism-based, Sprague-Dawley; set-up: regimen Daily Repeat, gender Male, age 6 weeks; conditions: in vivo, po, 0 mg/kg, 72 h, tissue Liver, route gavage, dose level Control, time 3 day
Labelling: LIVER reported below 10 g becomes 1; at or above becomes -1.

compound | class
C=CCO | -1
Cn1cnc([N+](=O)[O-])c1Sc1ncnc2nc[nH]c12 | 1
CS(=O)(=O)Nc1ccc([N+](=O)[O-])cc1Oc1ccccc1 [NIMESULIDE] | -1
COc1ccc(Cl)cc1C(=O)NCCc1ccc(S(=O)(=O)NC(=O)NC2CCCCC2)cc1 [GLYBURIDE] | -1

Q. Determine whether this compound shows LIVER lower than 10 g (ties excluded): Cc1cccc(Nc2cc(Cl)nc(SCC(=O)O)n2)c1C
A. -1

====

species: Rattus norvegicus; test: Open TG-GATES - Regimen: Single; assay type: toxicity, organism-based, Sprague-Dawley; set-up: regimen Single, gender Male, age 6 weeks; details: in vivo, po, 0 mg/kg, 9 h, tissue Plasma, route gavage, dose level Control
measured_metric: RALB (g/dL)
Numbers only, in g/dL.

Use these answered entries as a reference point.
compound | readout_units | measured_number
COc1ccc(Cl)cc1C(=O)NCCc1ccc(S(=O)(=O)NC(=O)NC2CCCCC2)cc1 [GLYBURIDE] | g/dL | 3.4
Cc1cccc(Nc2cc(Cl)nc(SCC(=O)O)n2)c1C | g/dL | 2.5
CNCCC(Oc1ccc(C(F)(F)F)cc1)c1ccccc1.Cl (stereo unspecified) [FLUOXETINE HYDROCHLORIDE] | g/dL | 3.8
Cc1cnc(NC(=O)C2=C(O)c3ccccc3S(=O)(=O)N2C)s1 | g/dL | 3.4
CS(=O)(=O)Nc1ccc([N+](=O)[O-])cc1Oc1ccccc1 [NIMESULIDE] | g/dL | 4
C=CCO | g/dL | 3.3
O=C1NC(=O)C(c2ccccc2)(c2ccccc2)N1 | g/dL | 2.5
COc1ccc(O)c(C(C)(C)C)c1.COc1ccc(O)cc1C(C)(C)C [BUTYLATED HYDROXYANISOLE] | g/dL | 2.6

Please go through the list and note RALB for each compound.
1. Cn1cnc([N+](=O)[O-])c1Sc1ncnc2nc[nH]c12
2. O=C1CN(/N=C/c2ccc(-c3ccc([N+](=O)[O-])cc3)o2)C(O)=N1

A.
1: 3; 2: 3.6

Q. Return reported RALB; argument: S=C=Nc1cccc2ccccc12 [1-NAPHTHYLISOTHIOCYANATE]
A. 3.5
